System: A498 renal
Assay: NCI-60 one-dose screen, 48 h (100 = growth as untreated, 0 = no growth, -100 = all killed)
Conditions: 10 µM unless noted
The panel holds about 83,000 compounds, 20% with a hit somewhere; the sample as a whole holds those more often.
The label is class 1 for growth below 70% and class 0 for growth equal to or exceeding 70%.

Check if growth falls below 70% for CCOC(=O)C1=C(C)NC(=O)NC1c1cc(=O)oc2ccc(C)cc12 (stereo not drawn) .
class 0

Item `N#CC(C#N)=NO` : growth beneath 70%, strictly?
class 0

Given the entry `C[N+](C)(CCOC(c1ccccc1)c1ccccc1)CC(=O)OCc1ccccc1` , would its reported growth be below 70%?
class 0

Please let me know if `CC(C)[C@@H]1CC[C@@H]2[C@@H]1[C@H](OC(=O)/C=C/c1ccccc1)[C@]1(C(C)C)C[C@@H](OC(=O)CO)[C@@]2(C)O1` shows growth below 70%.
class 1

In the record for CC(C)=CCc1cc2c(cc1O)C1=C(C(=O)C3=C(NCCS3(=O)=O)C1=O)C(C=C(C)C)O2 (stereo not drawn) , is growth less than 70%?
class 0

Lab log: compare recorded growth with 70%; is it strictly lower for `O=C(CNc1nc2ccccc2s1)Nc1ccc(-c2nc3ccccc3s2)cc1` ?
class 0

Report whether reported growth is lower than 70% (strictly) for `COc1cc(Nc2c(C#N)cnc3cc(OCCCN4CCN(C)CC4)c(OC)cc23)c(Cl)cc1Cl`
class 0

Strictly below 70%: is that where growth of `Nc1cc(C(F)(F)F)c(-c2cc(N3CCOCC3)nc(N3CCOCC3)n2)cn1` sits?
class 1

Lab note: confirm whether the reported growth for this molecule is below 70%, equality not counting. molecule: `CN1CCC(COc2cnc(-c3cccc(Cn4nc(-c5cccc(C#N)c5)ccc4=O)c3)nc2)CC1`
class 0

Field: below-cutoff. Rule: recorded growth strictly less than 70%. Subject: Cc1ccccc1N1C(c2ccccc2)=NNC12C=CC(=O)C=C2Cl (stereo not drawn)
class 0

Find out if reported growth for `O=[N+]([O-])c1cc(Br)cc2c1[nH]c1ccc(Br)cc12` is less than 70%
class 0

growth under 70%? Item: `Cn1cc(-c2ncnc3ccc(-c4cnc(Cl)c(NS(C)(=O)=O)c4)cc23)c2ccccc21`
class 1

Record `COc1ccc(-c2nc(N)ncc2Oc2ccccc2OC)c(O)c1` : is its growth strictly below 70%?
class 1

Does this molecule meet the criterion growth < 70%? `O=C(/C=C/c1ccc2c(c1)OCO2)c1c(O)c2ccccc2oc1=O`
class 0

Bench note: check whether `CC(C)OP(=O)(CCC(=O)c1c[nH]c2ccccc12)OC(C)C` shows growth below 70%
class 0

Is growth strictly under 70% for the entry `O=S1(=O)OC(c2cc(Cl)c(O)c(Br)c2)(c2cc(Cl)c(O)c(Br)c2)c2ccccc21` ?
class 0

Consider the molecule `Cn1cc(-c2[nH]c3cc(NC(=O)[C@H](N)C4CCCCC4)cc4c3c2C=NNC4=O)cn1` . Is its growth strictly less than 70%?
class 1

Report whether reported growth is lower than 70% (strictly) for `CC(C)(C)c1ccc(Cn2cc(CSc3nc4ccccc4s3)nn2)cc1`
class 0

Threshold test, growth < 70%: CCCCCCCC12Cc3ccccc3C1=Nc1c(c3ccccc3n1C)C2=O (stereo not drawn)
class 0

In plain terms, does `CC/C(=C(\c1ccc(OCCN2CCCCCCC2)cc1)c1ccc(OC(=O)C2CCCCC2)cc1)c1ccc(Cl)cc1` come in under 70% for growth?
class 1

Confirm or reject: growth of `N[C@@H]1CCCN(c2c(/C=C3\SC(=O)NC3=O)cccc2-c2ccccc2)C1` lies strictly below 70%
class 0

Hello, I'm reviewing records and need to know if growth of `O=C(NO)c1ccc(Cn2c(=O)n(-c3ccccc3F)c(=O)c3ccccc32)cc1` is below 70%. Could you check?
class 1

Please state whether growth is below 70% for `Cc1ccc2oc(=O)cc(-c3cc(-c4cc5ccccc5oc4=O)nc(N)c3C#N)c2c1`
class 0

Is the reported growth for `N#CC[C@H](C1CCCC1)n1cc(-c2ncnc3[nH]ccc23)cn1` strictly below 70%?
class 1

In plain terms, does N#Cc1c(-c2ccc(C(F)(F)F)cc2)c(F)c(NCCC2CCC(O)C2)n2c1nc1ccccc12 (stereo not drawn) come in under 70% for growth?
class 1

Determine if `COc1cc2ncnc(Nc3cccc(Cl)c3F)c2cc1OC(=O)N1CCN(C)C[C@H]1C` shows growth strictly lower than 70%.
class 0

Lab note: confirm whether the reported growth for this molecule is below 70%, equality not counting. molecule: `Cc1oc2c(C(=O)N/N=C\c3ccc(O)cc3O)c[nH]c2c1C`
class 1

Confirm or reject: growth of CCCc1cc2cc(-n3nc(C)c4c3CC(C)(C)CC4=O)cc(NC3CCC(O)CC3)c2c(=O)[nH]1 (stereo not drawn) lies strictly below 70%
class 1

A record lists `CCN1CCN(c2nc(C)cc(N(CCCNc3ccnc4cc(Cl)ccc34)Cc3ccc4c(c3)OCO4)n2)CC1` . Is its growth below 70%?
class 1

Threshold test, growth < 70%: `CC/C=C\C[C@H]1C/C=C2/C(=O)C=C[C@@H]2C/C=C\CCCC(=O)O1`
class 1
